# Tested on: CEM cells HIV-1 protection, formazan growth assay
# TEST_DETAILS: NCI AIDS Antiviral Assay
pEC50: −log10 of the molar value.
Record form. Attribute: pEC50. Fill in for each entry.

The reported pEC50 of the molecule O=C(OC1=CCN(Br)C1=O)C1=C(O)C(=O)N(Br)C1 was < 3.70

pEC50 reported for this molecule OCc1ccc2c(c1)CC1(C2)Cc2cc3c(cc2C1O)CCC3 (stereo unspecified) : < 3.70

Data point: CCOP(=O)(OCC)OP(=O)(OCC)OCC ; pEC50 = < 3.06

// recorded pEC50 for CC(C)=C[C@@H]1C[C@H](C)[C@H]2CC[C@H](C)[C@H]3C(=O)C(O)=C(C)C(=O)[C@]123 : < 3.70

Record COC(=O)CC(c1ccc(OC)cc1)C(CC(=O)OC)c1ccc(OC)cc1 (stereo unspecified) , field pEC50: < 4.17

The molecule listed as O=S(Cc1ccccn1)c1nc2ccccc2nc1-c1ccccc1 (stereo unspecified) shows pEC50 equal to < 4.54

Kindly note the recorded pEC50 for COC(=O)N/N=C(\C)CC(=O)Nc1ccc(Cl)cc1 , which is < 4.04

Form: molecule = COC(=O)C(Cc1ccccc1)NP(=O)(O)OCC1OC(n2cc(Br)c(=O)[nH]c2=O)CC1O (stereo unspecified) ; pEC50 = < 3.70

Quick note, pEC50 for O=C(O)CN(CCN(CC(=O)O)CC(=O)O)CCN(CC(=O)O)CC(=O)O landed at < 3.70

Entry C=C(c1nc2ccc(Cl)cc2[nH]c1=O)C(O)c1ccc(C(O)C(=O)c2nc3ccc(Cl)cc3[nH]c2=O)cc1 (stereo unspecified) — recorded pEC50 = < 3.79

pEC50 reported for this molecule CC1=C(C#N)C2(N)OC1(C)C1C(=O)C=CC(=O)C12 (stereo unspecified) : < 3.70

Summary for this molecule, COc1ccccc1C1C2=C(COC2=O)Oc2cc3c(cc21)OCO3 (stereo unspecified) : pEC50 is < 3.70

Item: O=[N+]([O-])c1ccc(-c2cnc3ccccn23)cc1 | pEC50: < 3.98

// field: pEC50; key: Cc1ccc(OCC2OC(n3cnc4nc(N)nc(Cl)c43)CC2Oc2ccc(C)cc2)cc1 (stereo unspecified) ; value = < 3.70

Noted for O=c1c(SCc2cccc(F)c2)c(SCc2cccc(F)c2)cnn1-c1ccccc1 : its pEC50 reads < 4.52

According to the records, this molecule COC(=O)c1ccc(/C=C/C2=CC(=O)C=CC2=O)cc1 displays pEC50 of < 3.70

The measured pEC50 associated with O=C(Cc1nccc2c1[nH]c1ccccc12)OC1C#CCSCC#C/C=C\1 (stereo unspecified) reads < 3.70

// recorded pEC50 for Cc1ccc(S(=O)(=O)NC(CCC(=O)NNc2ccccc2)C(=O)NNc2ccccc2)cc1 (stereo unspecified) : < 3.70

Briefly, pEC50 measured for CCOC(=O)c1cc(C2(OC)CCN(Cc3ccccc3)C2=O)c(-c2cc(C)no2)[nH]1 (stereo unspecified) : < 3.70

COC(=O)[C@@H]1C[C@]2(CC=O)c3ccccc3N(S(=O)(=O)c3ccccc3)[C@@H]2N1C(=O)OC has a reported pEC50 of < 4.00

pEC50 for Cn1c(=S)[nH]c(N)c(Cc2ccccc2)c1=O is < 3.70
